# measurement-target: Epidermal growth factor receptor (Homo sapiens) (UniProt P00533)
# Sequence (P00533 whole entry): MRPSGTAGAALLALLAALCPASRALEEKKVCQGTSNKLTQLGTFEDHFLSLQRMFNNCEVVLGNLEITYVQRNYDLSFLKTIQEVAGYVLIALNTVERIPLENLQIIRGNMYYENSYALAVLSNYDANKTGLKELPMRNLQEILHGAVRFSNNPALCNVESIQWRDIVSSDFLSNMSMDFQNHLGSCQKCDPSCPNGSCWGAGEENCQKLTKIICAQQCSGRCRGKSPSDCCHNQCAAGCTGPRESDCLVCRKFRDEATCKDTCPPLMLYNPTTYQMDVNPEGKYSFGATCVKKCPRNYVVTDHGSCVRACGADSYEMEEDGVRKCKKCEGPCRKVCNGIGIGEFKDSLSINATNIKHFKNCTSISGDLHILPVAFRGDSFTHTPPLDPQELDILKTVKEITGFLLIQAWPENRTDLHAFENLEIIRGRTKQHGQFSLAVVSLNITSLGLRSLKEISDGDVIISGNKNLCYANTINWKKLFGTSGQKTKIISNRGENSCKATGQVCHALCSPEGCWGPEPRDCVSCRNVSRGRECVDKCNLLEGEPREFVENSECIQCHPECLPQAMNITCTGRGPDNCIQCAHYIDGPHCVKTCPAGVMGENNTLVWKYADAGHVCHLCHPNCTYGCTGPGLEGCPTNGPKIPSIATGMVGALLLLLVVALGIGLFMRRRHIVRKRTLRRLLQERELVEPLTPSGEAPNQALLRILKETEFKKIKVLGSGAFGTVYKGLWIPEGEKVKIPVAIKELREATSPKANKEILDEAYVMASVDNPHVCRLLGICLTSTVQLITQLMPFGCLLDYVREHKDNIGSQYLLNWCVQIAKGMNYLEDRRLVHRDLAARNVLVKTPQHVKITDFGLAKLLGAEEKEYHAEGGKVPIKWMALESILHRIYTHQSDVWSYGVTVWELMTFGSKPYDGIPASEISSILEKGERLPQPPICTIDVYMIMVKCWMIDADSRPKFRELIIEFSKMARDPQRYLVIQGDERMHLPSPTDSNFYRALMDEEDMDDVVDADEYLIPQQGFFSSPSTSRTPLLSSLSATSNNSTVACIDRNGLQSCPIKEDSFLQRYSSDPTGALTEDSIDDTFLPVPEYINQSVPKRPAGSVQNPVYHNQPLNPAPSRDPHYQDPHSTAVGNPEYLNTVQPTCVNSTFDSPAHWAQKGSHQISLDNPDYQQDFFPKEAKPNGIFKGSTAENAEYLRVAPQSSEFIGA
# experiment: Inhibition of human recombinant EGF receptor dimerization expressed in A431 cells at 10 uM after 10 mins by immunoblotting analysis relative to control
# Format: cell-based
# experimental-context: A-431
Activity calls are given as the source filed them. The rule behind the calls is not given here. Where a SMILES comes first, the peptide text is derived from it.
Write down one outcome, taken from active, inactive

What was the test verdict on CSCC[C@@H]1NC(=O)[C@H](CCC(N)=O)NC(=O)[C@H](Cc2ccc(O)cc2)NC(=O)[C@H]([C@@H](C)O)NC(=O)[C@H]([C@@H](C)O)NC(=O)[C@@H]2CCCN2C(=O)[C@H](CC(N)=O)NC(=O)[C@H](Cc2ccc(O)cc2)NC(=O)[C@@H](NC(=O)[C@H](CCSC)NC(=O)[C@@H](N)CC(C)C)CSSC[C@@H](C(=O)O)NC1=O (HELM PEPTIDE1{L.M.C.Y.N.P.T.T.Y.Q.M.C}$PEPTIDE1,PEPTIDE1,3:R3-12:R3$$$V2.0) ? active

Outcome? CSCC[C@@H]1NC(=O)[C@H](CCC(N)=O)NC(=O)[C@H](Cc2ccc(O)cc2)NC(=O)[C@H]([C@@H](C)O)NC(=O)[C@H]([C@@H](C)O)NC(=O)[C@@H]2CCCN2C(=O)[C@H](CC(N)=O)NC(=O)[C@H](Cc2ccc(O)cc2)NC(=O)[C@H](CC(C)C)NC(=O)[C@H](CCSC)NC(=O)[C@@H](N)CSSC[C@@H](C(=O)O)NC(=O)[C@H](C(C)C)NC(=O)[C@H](CC(=O)O)NC1=O (HELM PEPTIDE1{C.M.L.Y.N.P.T.T.Y.Q.M.D.V.C}$PEPTIDE1,PEPTIDE1,1:R3-14:R3$$$V2.0) active

I'd appreciate the recorded outcome for CSCC[C@@H]1NC(=O)[C@H](CCC(N)=O)NC(=O)[C@H](Cc2ccc(O)cc2)NC(=O)[C@H]([C@@H](C)O)NC(=O)[C@H]([C@@H](C)O)NC(=O)[C@@H]2CCCN2C(=O)[C@H](CC(N)=O)NC(=O)[C@H](C)NC(=O)[C@@H](N)CSSC[C@@H](C(=O)O)NC1=O (HELM PEPTIDE1{C.A.N.P.T.T.Y.Q.M.C}$PEPTIDE1,PEPTIDE1,1:R3-10:R3$$$V2.0) from this test. inactive

----------
# measurement-target: Epidermal growth factor receptor (Homo sapiens)
# experiment: Inhibition of human recombinant EGF receptor dimerization expressed in A431 cells at 10 uM after 10 mins by immunoblotting analysis relative to control
# Type: cell-based
# experimental-context: A-431
Activity calls are given as the source filed them. The rule behind the calls is not given here. Where a SMILES comes first, the peptide text is derived from it.
Parameter call: string, one of active, inactive

Answer briefly: the call reported for CC(C)C[C@H](N)C(=O)N[C@H]1CSSC[C@@H](C(=O)N[C@@H](CC(=O)O)C(=O)O)NC(=O)[C@H](CCC(N)=O)NC(=O)[C@H](Cc2ccc(O)cc2)NC(=O)[C@H]([C@@H](C)O)NC(=O)[C@H]([C@@H](C)O)NC(=O)[C@@H]2CCCN2C(=O)[C@H](CC(N)=O)NC1=O (HELM PEPTIDE1{L.C.N.P.T.T.Y.Q.C.D}$PEPTIDE1,PEPTIDE1,2:R3-9:R3$$$V2.0) in this assay. inactive

Answer briefly: the call reported for CSCC[C@@H]1NC(=O)[C@H](CCC(N)=O)NC(=O)[C@H](Cc2ccc(O)cc2)NC(=O)[C@H]([C@@H](C)O)NC(=O)[C@H]([C@@H](C)O)NC(=O)[C@@H]2CCCN2C(=O)[C@H](CC(N)=O)NC(=O)[C@H](Cc2ccc(O)cc2)NC(=O)[C@@H](NC(=O)[C@H](CCSC)NC(=O)[C@H](CC(C)C)NC(=O)[C@@H]2CCCN2)CSSC[C@@H](C(=O)O)NC1=O (HELM PEPTIDE1{P.L.M.C.Y.N.P.T.T.Y.Q.M.C}$PEPTIDE1,PEPTIDE1,4:R3-13:R3$$$V2.0) in this assay. active

What did the test return for C[C@@H](O)[C@@H]1NC(=O)[C@H]([C@@H](C)O)NC(=O)[C@@H]2CCCN2C(=O)[C@H](CC(N)=O)NC(=O)[C@H](Cc2ccc(O)cc2)NC(=O)[C@@H](N)CSSC[C@@H](C(=O)N[C@@H](CC(=O)O)C(=O)O)NC(=O)[C@H](CCC(N)=O)NC(=O)[C@H](Cc2ccc(O)cc2)NC1=O (HELM PEPTIDE1{C.Y.N.P.T.T.Y.Q.C.D}$PEPTIDE1,PEPTIDE1,1:R3-9:R3$$$V2.0) ? inactive

----------
# measurement-target: Epidermal growth factor receptor (Homo sapiens)
# experiment: Human recombinant EGF receptor dimer amount expressed in A431 cells at 10 uM after 10 mins by immunoblotting analysis relative to control
# experimental-context: A-431
Where a SMILES comes first, the peptide text is derived from it.
readout-label: residual activity (%)
Just the number please, in %, no unit attached.

Identify the reported residual activity for the following entry. C[C@@H](O)[C@@H]1NC(=O)[C@H]([C@@H](C)O)NC(=O)[C@@H]2CCCN2C(=O)[C@H](CC(N)=O)NC(=O)[C@H](Cc2ccc(O)cc2)NC(=O)[C@@H](N)CSSC[C@@H](C(=O)O)NC(=O)[C@H](CC[S+](C)[O-])NC(=O)[C@H](CCC(N)=O)NC(=O)[C@H](Cc2ccc(O)cc2)NC1=O (stereo not given in full) (HELM PEPTIDE1{C.Y.N.P.T.T.Y.Q.[CS(=O)CC[C@H](N[*:1])C(=O)[*:2]].C}$PEPTIDE1,PEPTIDE1,1:R3-10:R3$$$V2.0) 73

Look up residual activity of CCCC[C@@H]1NC(=O)[C@H](CCC(N)=O)NC(=O)[C@H](Cc2ccc(O)cc2)NC(=O)[C@H]([C@@H](C)O)NC(=O)[C@H]([C@@H](C)O)NC(=O)[C@@H]2CCCN2C(=O)[C@H](CC(N)=O)NC(=O)[C@H](Cc2ccc(O)cc2)NC(=O)[C@@H](N)CSSC[C@@H](C(=O)O)NC1=O (HELM PEPTIDE1{C.Y.N.P.T.T.Y.Q.[Nle].C}$PEPTIDE1,PEPTIDE1,1:R3-10:R3$$$V2.0) and report it. 73

Query residual activity for CSCC[C@H](NC(=O)[C@H](CCC(N)=O)NC(=O)[C@H](Cc1ccc(O)cc1)NC(=O)[C@@H]1CSSC[C@H](NC(=O)[C@H](Cc2ccc(O)cc2)NC(=O)[C@@H](N)CC(C)C)C(=O)N2CCC[C@H]2C(=O)N[C@@H]([C@@H](C)O)C(=O)N1)C(=O)N[C@@H](CC(=O)O)C(=O)O (HELM PEPTIDE1{L.Y.C.P.T.C.Y.Q.M.D}$PEPTIDE1,PEPTIDE1,3:R3-6:R3$$$V2.0) 90

Return residual activity for the following molecule: C[C@@H]1NC(=O)[C@H](CCC(N)=O)NC(=O)[C@H](Cc2ccc(O)cc2)NC(=O)[C@H]([C@@H](C)O)NC(=O)[C@H]([C@@H](C)O)NC(=O)[C@@H]2CCCN2C(=O)[C@H](CC(N)=O)NC(=O)[C@H](Cc2ccc(O)cc2)NC(=O)[C@@H](N)CSSC[C@@H](C(=O)O)NC1=O (HELM PEPTIDE1{C.Y.N.P.T.T.Y.Q.A.C}$PEPTIDE1,PEPTIDE1,1:R3-10:R3$$$V2.0) 73

Hello, please tell me recorded residual activity for this one: CSCC[C@@H]1NC(=O)[C@H](CCC(N)=O)NC(=O)[C@H](Cc2ccc(O)cc2)NC(=O)[C@H]([C@@H](C)O)NC(=O)[C@H]([C@@H](C)O)NC(=O)[C@@H]2CCCN2C(=O)[C@H](CC(N)=O)NC(=O)[C@H](Cc2ccc(O)cc2)NC(=O)[C@@H](NC(=O)[C@@H](N)CCSC)CSSC[C@@H](C(=O)O)NC1=O (HELM PEPTIDE1{M.C.Y.N.P.T.T.Y.Q.M.C}$PEPTIDE1,PEPTIDE1,2:R3-11:R3$$$V2.0) 64

Specify measured residual activity for CC(C)C[C@@H]1NC(=O)[C@H](CCC(N)=O)NC(=O)[C@H](Cc2ccc(O)cc2)NC(=O)[C@H]([C@@H](C)O)NC(=O)[C@H]([C@@H](C)O)NC(=O)[C@@H]2CCCN2C(=O)[C@H](CC(N)=O)NC(=O)[C@H](Cc2ccc(O)cc2)NC(=O)[C@@H](N)CSSC[C@@H](C(=O)O)NC1=O (HELM PEPTIDE1{C.Y.N.P.T.T.Y.Q.L.C}$PEPTIDE1,PEPTIDE1,1:R3-10:R3$$$V2.0) . 73

Specify reported residual activity for the molecule shown: CSCC[C@@H]1NC(=O)[C@H](CCC(N)=O)NC(=O)[C@H](Cc2ccc(O)cc2)NC(=O)[C@@H]2CSSC[C@H](NC(=O)[C@H](Cc3ccc(O)cc3)NC(=O)[C@@H](N)CSSC[C@@H](C(=O)O)NC1=O)C(=O)N1CCC[C@H]1C(=O)N[C@@H]([C@@H](C)O)C(=O)N2 (HELM PEPTIDE1{C.Y.C.P.T.C.Y.Q.M.C}$PEPTIDE1,PEPTIDE1,1:R3-10:R3|PEPTIDE1,PEPTIDE1,3:R3-6:R3$$$V2.0) 83

Supply residual activity value. Item: CSCC[C@@H]1NC(=O)[C@H](CCC(N)=O)NC(=O)[C@H](Cc2ccc(O)cc2)NC(=O)[C@H]([C@@H](C)O)NC(=O)[C@H]([C@@H](C)O)NC(=O)[C@@H]2CCCN2C(=O)[C@H](CC(N)=O)NC(=O)[C@H](Cc2ccc(O)cc2)NC(=O)[C@H](CC(C)C)NC(=O)[C@@H](N)CSSC[C@@H](C(=O)O)NC(=O)[C@H](CC(=O)O)NC1=O (HELM PEPTIDE1{C.L.Y.N.P.T.T.Y.Q.M.D.C}$PEPTIDE1,PEPTIDE1,1:R3-12:R3$$$V2.0) 80

Supply recorded residual activity for CSCC[C@@H]1NC(=O)[C@H](CCC(N)=O)NC(=O)[C@H](Cc2ccc(O)cc2)NC(=O)[C@H]([C@@H](C)O)NC(=O)[C@H]([C@@H](C)O)NC(=O)[C@@H]2CCCN2C(=O)[C@H](CC(N)=O)NC(=O)[C@H](Cc2ccc(O)cc2)NC(=O)[C@@H](N)CSSC[C@@H](C(=O)O)NC1=O here. 69

Hello, please tell me recorded residual activity for this one: C[C@@H](O)[C@@H]1NC(=O)[C@H]([C@@H](C)O)NC(=O)[C@@H]2CCCN2C(=O)[C@H](CC(N)=O)NC(=O)[C@H](Cc2ccc(O)cc2)NC(=O)[C@@H](N)CSSC[C@@H](C(=O)O)NC(=O)[C@H](CCC(N)=O)NC(=O)[C@H](CCC(N)=O)NC(=O)[C@H](Cc2ccc(O)cc2)NC1=O (HELM PEPTIDE1{C.Y.N.P.T.T.Y.Q.Q.C}$PEPTIDE1,PEPTIDE1,1:R3-10:R3$$$V2.0) 73
